B1: KLHDC10 (parent)
chain: CPIIRIPNRFLRGHRPPPARSGHR

variants of: B1; experiment: protein stability index of a GFP-peptide fusion (GPS, HEK-293T) (PSI 1-6); higher = more stable; conditions: c terminus: a fixed tail appended;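 also: lentivirally expressed fusions sorted by FACS into six bins by GFP to DsRed ratio, PSI derived from sequencing read proportions per bin multiplied by bin number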
Everything with protein stability index lower than 2 is -1; everything else, including exactly 2, is 1.

Consider the following illustrative entries.
Prompt: Could you verify whether the entry "R20A" shows protein stability index of no less than 2?
Completion: 1

Prompt: Test whether the variant "H14K" records protein stability index of 2 or higher.
Completion: 1

Prompt: API: above_or_equal(metric=protein stability index, cutoff=2) for item "P7K"
Completion: 1

Prompt: Hi team, for "L11D" , is the recorded protein stability index at or above 2?
Completion: -1

Prompt: Tell me whether protein stability index is at least 2 here: "I6G"
Completion: 1

Others:
Prompt: Decide: protein stability index of "R9D" >= 2?
Completion: 1
